List of concentration values.
Tested on: Serum
Assay: Drug level in SCID mouse serum at 10 mg/kg, iv
Assay type: ADME, organism-based
Parameters: dose 10 mg/kg, route intravenous
Settings: in vivo, read-out: Drug uptake
A number alone suffices; assume µM.

# molecule, property-name, unit-abbreviation, result
rows = [
    ("CC(O)(CS(=O)(=O)c1ccc(F)cc1)C(=O)Nc1ccc(C#N)c(C(F)(F)F)c1 (stereo not drawn) [BICALUTAMIDE]", "concentration", "µM", 10000),
    ("CNC(=O)c1ccc(N2C(=S)N(c3ccc(C#N)c(C(F)(F)F)c3)C(=O)C23CCC3)cc1F", "concentration", "µM", 9900),
]

Returns the measured concentration for the input molecule. Input: CNC(=O)CCCc1ccc(N2C(=S)N(c3ccc(C#N)c(C(F)(F)F)c3)C(=O)C23CCC3)cc1
390

====

Biological target: Androgen receptor (Rattus norvegicus)
Assay: Antagonist activity at androgen receptor in rat prostate gland at 0.625 to 20 uM by luciferase reporter gene assay
Format: functional, tissue-based
The source made the active and inactive calls. The calls are words filed in the database; no cut-off is given here.
Just give me one of these, please: yes (1) for active, no (0) for inactive

Some entries whose results are on file:
# compound, class-name
records = [
    ("CC1(C)C(=O)N(c2ccc(C#N)c(C(F)(F)F)c2)C(=S)N1c1ccc(N)cc1", "yes (1)"),
    ("CCC1(CC)C(=O)N(c2ccc(C#N)c(C(F)(F)F)c2)C(=S)N1c1ccc(C)cc1", "no (0)"),
    ("CC1(C)C(=O)N(c2ccc(C#N)c(C(F)(F)F)c2)C(=S)N1c1ccc(O)cc1", "yes (1)"),
    ("Cc1ccc(N2CC(=O)N(c3ccc(C#N)c(C(F)(F)F)c3)C2=S)cc1", "no (0)"),
    ("Cc1ccc(N2C(=S)N(c3ccc(C#N)c(C(F)(F)F)c3)C(=O)C2C)cc1 (stereo not drawn)", "no (0)"),
    ("CCCC1C(=O)N(c2ccc(C#N)c(C(F)(F)F)c2)C(=S)N1c1ccc(C)cc1 (stereo not drawn)", "no (0)"),
    ("CC1(C)C(=O)N(c2ccc(C#N)c(C(F)(F)F)c2)C(=S)N1c1ccccc1", "yes (1)"),
    ("CCC1C(=O)N(c2ccc(C#N)c(C(F)(F)F)c2)C(=S)N1c1ccc(C)cc1 (stereo not drawn)", "no (0)"),
]

Please look at the following compound next.
What was the test verdict on CC1(C)C(=O)N(c2ccc(C#N)c(C(F)(F)F)c2)C(=S)N1c1ccc(N=[N+]=[N-])cc1 ?
yes (1)

====

Test system: LNCaP
Test: Inhibition of prostate specific antigen expression in human LNCAP cells at 0.625 to 20 uM in presence of fetal bovine serum
Type: functional, cell-based
Activity calls are given as the source filed them. The calls are words filed in the database; no cut-off is given here.
Lab note: assign the record to one of yes (1) = active, no (0) = inactive

Solved entries (count: 5):
# smi, experimental-system, class-name
rows = [
    ("Cc1ccc(N2C(=S)N(c3ccc(C#N)c(C(F)(F)F)c3)C(=O)C23CCCCC3)cc1", "LNCaP", "no (0)"),
    ("CC1(C)C(=O)N(c2ccc(C#N)c(C(F)(F)F)c2)C(=S)N1CCCCCCN=[N+]=[N-]", "LNCaP", "yes (1)"),
    ("Cc1ccc(N2C(=S)N(c3ccc(C#N)c(C(F)(F)F)c3)C(=O)C23CCCCCCC3)cc1", "LNCaP", "no (0)"),
    ("Cc1ccc(N2C(=S)N(c3ccc(C#N)c(C(F)(F)F)c3)C(=O)C23CCC3)cc1", "LNCaP", "yes (1)"),
    ("CC1(C)C(=O)N(c2ccc(C#N)c(C(F)(F)F)c2)C(=S)N1c1ccc(N)cc1", "LNCaP", "yes (1)"),
]

Each compound tested received a call. Report the one for Cc1ccc(N2C(=S)N(c3ccc(C#N)c(C(F)(F)F)c3)C(=O)C23CCCC3)cc1 .
yes (1)

Tell me the recorded outcome of this test for CC1(C)C(=O)N(c2ccc(C#N)c(C(F)(F)F)c2)C(=S)N1CCCCO .
yes (1)

Answer briefly: the call reported for CC1(C)C(=O)N(c2ccc(C#N)c(C(F)(F)F)c2)C(=S)N1CCCCCCCN=[N+]=[N-] in this assay.
yes (1)

Provenance of the data: ChEMBL document CHEMBL1155462
